target: porcine pancreatic lipase (Sus scrofa); construct: gene PNLIP; assay: p-nitrophenyl butyrate hydrolysis assay, % inhibition at […]; assay type: biochemical
Sequence (P00591 whole entry): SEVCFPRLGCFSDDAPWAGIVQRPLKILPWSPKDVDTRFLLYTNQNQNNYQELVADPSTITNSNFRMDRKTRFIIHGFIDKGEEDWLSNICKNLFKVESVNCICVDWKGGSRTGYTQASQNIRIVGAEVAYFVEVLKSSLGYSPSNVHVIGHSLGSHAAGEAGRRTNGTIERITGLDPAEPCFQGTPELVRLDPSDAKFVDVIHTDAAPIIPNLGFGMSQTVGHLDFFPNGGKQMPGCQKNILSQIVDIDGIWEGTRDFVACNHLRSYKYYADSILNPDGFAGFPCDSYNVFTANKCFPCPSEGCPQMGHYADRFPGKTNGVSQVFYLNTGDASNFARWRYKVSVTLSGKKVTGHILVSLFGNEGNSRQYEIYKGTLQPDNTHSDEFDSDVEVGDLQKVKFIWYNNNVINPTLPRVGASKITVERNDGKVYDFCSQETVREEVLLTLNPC
measured.attribute: inhibition at 100 µM (%)

CC(C)=CCc1c(O)cc2occ(-c3ccc(O)cc3)c(=O)c2c1O; 65.7

(I) O=c1c(-c2ccc(O)cc2)coc2cc(O)cc(O)c12
(II) CC(C)=CCc1c(O)c(CC=C(C)C)c2occ(-c3ccc(O)c(O)c3)c(=O)c2c1O
input: Identify the entry with the larger inhibition at 100 µM. Options: I and II Output the label that corresponds to your choice.
output: II
(II: 92.8%, I: 60.7%)

----------
target: porcine pancreatic lipase (Sus scrofa); construct: gene PNLIP; experiment: p-nitrophenyl butyrate hydrolysis assay; Lineweaver-Burk analysis; format: biochemical
measured.attribute: IC50 (µM)
Answer with a number only, understood to be in µM.

input: // IC50 lookup, key: CC1(C)C=Cc2c(cc(O)c3c(=O)c(-c4ccc(O)c(O)c4)coc23)O1 [compound 19]
output: 16.8
